# test method notes: NVS_IC_rCaBTZCHL: NovaScreen (NVS) Ion Channel Assay for Calcium Channel, Type L, Benzothiazepine Site (CaBTZCHL) (AID 2283337)
Records with an inconclusive call do not appear. Activity calls are given as the source filed them. The calls were made as follows: active = hit-call score of the fitted dose curve at least 0.9, where 1 is the maximum; inconclusive = response in the unintended direction; inactive = score below 0.9.
Outcome codes: True = active, False = inactive

>>> print(df.to_string())
                                   compound  class_assignment
0  NC(=NCCCCCCN=C(N)/N=C(\N)Nc1ccc(Cl)cc1)/N=C(\N)Nc1ccc(Cl)cc1              True
1  C=CC(C)(CCC=C(C)C)OC(C)=O (stereo not given)             False
2     CCCCCCCCCCCCCCCCCC[N+](C)(C)Cc1ccccc1             False
3   N=C(N)c1ccc(OCCCCCOc2ccc(C(=N)N)cc2)cc1              True
4  CCCCc1oc2ccccc2c1C(=O)c1cc(I)c(OCCN(CC)CC)c(I)c1              True

---

# tested target: human Peroxisome Proliferator-activated Receptor alpha (PPARa), PPARA (gene 5465) (UniProt Q07869)
# Sequence (Q07869 whole entry, looked up): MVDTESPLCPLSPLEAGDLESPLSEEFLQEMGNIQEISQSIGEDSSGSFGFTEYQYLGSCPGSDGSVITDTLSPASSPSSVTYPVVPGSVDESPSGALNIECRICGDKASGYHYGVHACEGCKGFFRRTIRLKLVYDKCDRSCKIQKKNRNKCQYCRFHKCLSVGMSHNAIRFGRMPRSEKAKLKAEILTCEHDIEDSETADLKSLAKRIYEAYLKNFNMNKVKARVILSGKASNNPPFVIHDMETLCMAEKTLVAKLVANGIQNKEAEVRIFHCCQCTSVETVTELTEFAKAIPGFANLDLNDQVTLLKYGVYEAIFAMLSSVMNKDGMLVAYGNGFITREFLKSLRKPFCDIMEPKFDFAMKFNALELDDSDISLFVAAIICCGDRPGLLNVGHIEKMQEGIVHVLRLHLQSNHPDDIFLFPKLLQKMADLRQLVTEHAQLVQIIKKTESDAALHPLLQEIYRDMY
# test method notes: ATG_PPARa_TRANS: Attagene TRANS-FACTORIAL HepG2 Assay for human Peroxisome Proliferator-activated Receptor alpha (PPARa) (AID 2283001)
Records with an inconclusive call do not appear. Activity calls are given as the source filed them. How the source made its calls: active means hit-call score of the fitted dose curve at least 0.9, where 1 is the maximum; inconclusive means response in the unintended direction; inactive means score below 0.9.
Outcome codes: YES for active, NO for inactive

In [3]: df
Out[3]:
                                    molecule  class_assignment
 0  O=P(O)(O)CCC(F)(F)C(F)(F)C(F)(F)C(F)(F)C(F)(F)C(F)(F)C(F)(F)C(F)(F)F                NO
 1                CCc1cccc(CC)c1NC(=O)C(=O)O                NO
 2     O=C(O)CN(CCCN(CC(=O)O)CC(=O)O)CC(=O)O                NO
 3                              CCCCCCCCCCCC                NO
 4                     Cc1ccc(S(=O)(=O)O)cc1                NO
 5                    CC(C)(C)c1ccc(O)c(O)c1               YES
 6    CCCCCCCCC1CCC(=O)O1 (stereo not drawn)                NO
 7  Brc1cc(Br)c(Oc2c(Br)cc(Br)c(Br)c2Br)cc1Br                NO
 8                        Oc1cccc2c(O)cccc12                NO
 9  NC(=NCCCCCCN=C(N)/N=C(\N)Nc1ccc(Cl)cc1)/N=C(\N)Nc1ccc(Cl)cc1                NO
10                 CCCCCCCCCCCC(=O)NCCCN(C)C                NO
11                               NS(=O)(=O)O                NO
12                   CCCCCCOC(=O)c1ccc(O)cc1               YES
13  C=CC(C)(CCC=C(C)C)OC(C)=O (stereo not drawn)                NO
14        Cc1ccc(N=Nc2c(O)ccc3ccccc23)c(C)c1                NO
15  O=S(=O)(O)C(F)(F)C(F)(F)C(F)(F)C(F)(F)C(F)(F)C(F)(F)C(F)(F)C(F)(F)C(F)(F)C(F)(F)F                NO
16       CCCCCCCCCCCCOC(=O)c1cc(O)c(O)c(O)c1               YES
17                    C=COC(=O)C(C)(C)CCCCCC                NO
18                              CC(=O)CC(C)C                NO
19  O=C(OC(=O)C(F)(F)C(F)(F)F)C(F)(F)C(F)(F)F                NO
20                              O=C(O)C(=O)O                NO
21        CCCCCCCCCCCC[N+](C)(C)CCCCCCCCCCCC                NO
22  CCO[Si](CCC1CCC2OC2C1)(OCC)OCC (stereo not drawn)                NO
23  FC(F)(F)C1(F)C(F)(F)C(F)(F)C(F)(F)C1(F)F                NO
24         O=C(F)C(F)(F)C(F)(F)C(F)(F)C(=O)F                NO
25             O=CC(F)(F)C(F)(F)C(F)(F)C(F)F                NO
26  CCCCCCCCCC=CCC1CC(=O)OC1=O (stereo not drawn)                NO
27         COC(O)c1ccccc1 (stereo not drawn)                NO

---

# test method notes: ATG_NF_kB_CIS: Attagene CIS-FACTORIAL HepG2 Assay for human Nuclear Factor Kappa B (NF-kB) (AID 2282991)
# test conditions: HepG2 Attagene cis-factorial NF-kB reporter mRNA; actives raise or lower the signal
Activity calls are given as the source filed them. The calls were made as follows: active = hit-call score of the fitted dose curve at least 0.9, where 1 is the maximum; inactive = score below 0.9.
Outcome codes: active, inactive

                                    compound  class_assignment
 0  COc1cc(OC)nc(NC(=O)NS(=O)(=O)Nc2ccccc2C(=O)N(C)C)n1          inactive
 1                           CCCCCCCCCCCCCCC          inactive
 2         O=C(F)C(F)(F)C(F)(F)C(F)(F)C(=O)F          inactive
 3               Brc1ccc(Oc2ccc(Br)cc2Br)cc1          inactive
 4                      Nc1ccc(O)c(C(=O)O)c1          inactive
 5  CN(CCO)S(=O)(=O)C(F)(F)C(F)(F)C(F)(F)C(F)(F)C(F)(F)C(F)(F)C(F)(F)C(F)(F)F          inactive
 6        CCC(C)c1ccccc1O (stereo not drawn)          inactive
 7                                c1cc[nH]c1          inactive
 8           CCCCCCCCCCCC[N+](C)(C)Cc1ccccc1          inactive
 9     O=C(O)CN(CCCN(CC(=O)O)CC(=O)O)CC(=O)O          inactive
10  O=C(NCc1ncc(C(F)(F)F)cc1Cl)c1c(Cl)cccc1Cl            active
11         O=c1cc(-c2ccccc2)oc2ccc3ccccc3c12          inactive
12  CCCCCCCCCC=CCC1CC(=O)OC1=O (stereo not drawn)            active
13                CCc1cccc(CC)c1NC(=O)C(=O)O          inactive
14                  Cc1ccc(C(=O)c2ccccc2)cc1          inactive
15          Cc1cc(C(C)(C)C)c(O)c(C(C)(C)C)c1          inactive
16               C=CC(=C)CC/C=C(\C)CCC=C(C)C          inactive
17                  FC(F)(F)C(F)(F)C(F)(F)Br          inactive
18    Clc1ccc(Nc2nnc(Cc3ccncc3)c3ccccc23)cc1          inactive
19        c1cc2cccc3c4cccc5cccc(c(c1)c23)c54          inactive
20  COC1=CC(=O)C[C@@H](C)[C@]12Oc1c(Cl)c(OC)cc(OC)c1C2=O            active
21           COc1ccccc1NC(=O)c1cc2ccccc2cc1O          inactive
22                                 CCCCN(C)C          inactive
23                           O=C(NO)c1ccccc1            active
24                        C=Cc1ccc(O)c(OC)c1          inactive
25                              O=C(O)C(=O)O          inactive
26                CCC1CO1 (stereo not drawn)          inactive
27  C=CC(=O)OCCC(F)(F)C(F)(F)C(F)(F)C(F)(F)C(F)(F)C(F)(F)F          inactive
